tested on: MCC-13; assay: qHTS assay to identify novel small-molecules to repurpose for Merkel cell carcinoma treatment (AID 1296009); details: MCC and control cell lines, CellTiter-Glo viability, 72 h; series mostly up to 46 µM; note: nearly all actives have a fitted effect of over 60% in size
Results filed as inconclusive are left out. Active and inactive are the calls of the source. Calls come from the whole dose curve; as a rule, active = well fitted inhibition curve with a large enough effect; inconclusive = small, poorly fitted or top-dose-only effect; inactive = flat fitted curve, though single readings scatter.
Response enum: active, inactive

{"Compound": "CCC(=O)O[C@]1(C(=O)CCl)[C@@H](C)C[C@H]2[C@@H]3CCC4=CC(=O)C=C[C@]4(C)[C@@]3(F)[C@@H](O)C[C@@]21C", "Assay System": "MCC-13", "Assigned Label": "inactive"}
{"Compound": "COC(=O)Nc1nc2ccc(C(=O)c3ccccc3)cc2[nH]1", "Assay System": "MCC-13", "Assigned Label": "active"}
{"Compound": "CCOC(=O)c1ccc(OC(=O)CCCCCN=C(N)N)cc1", "Assay System": "MCC-13", "Assigned Label": "inactive"}
{"Compound": "O=C(O)c1cn(C2CC2)c2cc(N3CCNCC3)c(F)cc2c1=O", "Assay System": "MCC-13", "Assigned Label": "inactive"}
{"Compound": "NNC(=O)c1ccncc1", "Assay System": "MCC-13", "Assigned Label": "inactive"}

[in] Dear all, I need the recorded test outcome for C1CCC(C(CC2CCCCN2)C2CCCCC2)CC1 (configuration not stated) , thank you.
[out] inactive

[in] Dear all, I need the recorded test outcome for CC(C)OC(=O)C(C(=O)OC(C)C)=C1SC=CS1 , thank you.
[out] inactive

[in] Dear all, I need the recorded test outcome for C[C@@H]1CN(c2c(F)c(N)c3c(=O)c(C(=O)O)cn(C4CC4)c3c2F)C[C@H](C)N1 , thank you.
[out] inactive

[in] Dear all, I need the recorded test outcome for NC(=O)N1c2ccccc2CC(=O)c2ccccc21 , thank you.
[out] inactive

[in] Dear all, I need the recorded test outcome for COc1ccc(-c2ccc3cc(C(=O)O)ccc3c2)cc1C12CC3CC(CC(C3)C1)C2 , thank you.
[out] inactive

[in] Dear all, I need the recorded test outcome for OCc1ccc(-c2nn(Cc3ccccc3)c3ccccc23)o1 , thank you.
[out] inactive

[in] Dear all, I need the recorded test outcome for O=C(O)c1ccc(-n2nc(-c3ccccc3O)nc2-c2ccccc2O)cc1 , thank you.
[out] inactive

[in] Dear all, I need the recorded test outcome for Nc1nc(N)nc(-c2cc(Cl)ccc2Cl)n1 , thank you.
[out] inactive

[in] Dear all, I need the recorded test outcome for CCN1CCCC1CNC(=O)c1cc(S(N)(=O)=O)ccc1OC (configuration not stated) , thank you.
[out] inactive

[in] Dear all, I need the recorded test outcome for CC(=O)Oc1ccccc1C(=O)Nc1ncc([N+](=O)[O-])s1 , thank you.
[out] inactive
